I'd appreciate it if you could supply Lck activity, percentage relative to control, in vitro kinase assay, peptide 1 µM values for the items below.
# Target Of Assay: Lck(h) (lymphocyte-specific protein tyrosine kinase) (human, UniProt P06239 1-509, limits assumed)
# Sequence (P06239 whole entry): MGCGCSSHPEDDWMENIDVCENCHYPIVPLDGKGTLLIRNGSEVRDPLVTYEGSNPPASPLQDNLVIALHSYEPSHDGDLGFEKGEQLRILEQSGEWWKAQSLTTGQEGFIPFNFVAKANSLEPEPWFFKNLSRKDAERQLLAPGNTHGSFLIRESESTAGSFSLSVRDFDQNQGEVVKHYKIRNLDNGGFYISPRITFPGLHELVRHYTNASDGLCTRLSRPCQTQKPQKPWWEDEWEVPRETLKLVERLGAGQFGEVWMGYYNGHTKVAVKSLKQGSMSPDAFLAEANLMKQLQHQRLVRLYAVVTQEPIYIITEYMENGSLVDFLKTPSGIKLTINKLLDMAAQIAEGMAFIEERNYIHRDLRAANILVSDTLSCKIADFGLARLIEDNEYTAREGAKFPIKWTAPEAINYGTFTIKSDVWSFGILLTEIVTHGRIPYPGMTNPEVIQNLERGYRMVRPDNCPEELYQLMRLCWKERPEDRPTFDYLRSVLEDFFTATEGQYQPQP
# Assay Protocol: cell-based or functional assay
Bridges are numbered along the chain shown (N, C = ends). Where no end group is shown, it is not given here.

Exercise: Consider the binder shown here: RSKAKRRRRRRRRR-NH2 [RSKAK-RRRRRRRRR (IK50900)] What is its recorded Lck activity, percentage relative to control, in vitro kinase assay, peptide 1 µM?
Solution: 531 % increase in Lck activity

Exercise: Consider the binder shown here: RSKAKNPLYRHHHHHHHHHH-NH2 [RSKAKNPLY-RHHHHHHHHHH (IK14010)] What is its recorded Lck activity, percentage relative to control, in vitro kinase assay, peptide 1 µM?
Solution: 30 % increase in Lck activity

Exercise: Consider the binder shown here: RSKAKNPLYKKKKKKKKK-NH2 [RSKAKNPLY-KKKKKKKKK (IK94K90)] What is its recorded Lck activity, percentage relative to control, in vitro kinase assay, peptide 1 µM?
Solution: 49 % increase in Lck activity

Exercise: Consider the binder shown here: RSKAKNPLYRRRRRRRRR-NH2 [RSKAKNPLY-RRRRRRRRR-NH2 (IK14800)] What is its recorded Lck activity, percentage relative to control, in vitro kinase assay, peptide 1 µM?
Solution: 496%

Exercise: Consider the binder shown here: HHHHHRSKAKNPLYRRRRRRRRR-NH2 [HHHHH-RSKAKNPLY-RRRRRRRRR (IK11480)] What is its recorded Lck activity, percentage relative to control, in vitro kinase assay, peptide 1 µM?
Solution: 883 % increase in Lck activity

Exercise: Consider the binder shown here: RSKAKNPLYRRRRR-NH2 [RSKAKNPLY-RRRRR (IK14400)] What is its recorded Lck activity, percentage relative to control, in vitro kinase assay, peptide 1 µM?
Solution: 85%

Exercise: Consider the binder shown here: RSKAKNPLYRRRRRRRRRHHHHHHHHHH-NH2 [RSKAKNPLY-RRRRRRRRR-HHHHHHHHHH (IK14810)] What is its recorded Lck activity, percentage relative to control, in vitro kinase assay, peptide 1 µM?
Solution: 899 % increase in Lck activity

Exercise: Consider the binder shown here: CRSKAKNPLYRRRRRRC (disulfide 1-17 (inferred); not fully specified; printed as C-RSKAKNPLY-RRRRRR-C (Cyclised)) [C-RSKAKNPLY-RRRRRR-C (Cyclised) (IK14500C)] What is its recorded Lck activity, percentage relative to control, in vitro kinase assay, peptide 1 µM?
Solution: 221%
